measurementNotes: NCI Yeast Anticancer Drug Screen. Data for the bub3 strain (AID 167)
settings: S. cerevisiae bub3 mutant strain, at 50.0 µM, stronger effect = higher value
About 79,000 compounds went through this panel and 15% of them were active in at least one assay; those are over-represented in the sample as a whole.
quantity: growth inhibition (%)
Give just the numeric value; % need not be written.

Please review the entries below; each comes with its answer.
* c1ccc2c3nnc(c2c1)SCCSCCCSCCS3 | 8.65
* CCOC(=O)C(=[N+]=[N-])C(=O)c1cc2ccccc2oc1=O | -13.7
* COc1cccc(CN(CC(=O)O)S(=O)(=O)c2ccc(C)cc2)c1 | -23.6
* Cc1cc2nc(CC(O)c3nc4cc(C)c(C)cc4[nH]3)[nH]c2cc1C (stereo unspecified) | -4.9
* COC(=O)c1ccc(C(=O)c2ccc(OC)cc2OC)cc1 | 4.15
* Cc1cc(CC(O)(c2ccccc2)c2ccccc2)nc2[nH]c(=O)ccc12 | 6.95
* O=C(OC1C#CCSCC#C/C=C\1)c1ccc2c(c1)C(=O)c1ccccc1C2=O (stereo unspecified) | -16.9
* CC(=O)Nc1ccc(/C=C/c2csnn2)cc1 | -4.45

## Input Which growth inhibition is reported for this compound? COC(=O)Cc1oc(=O)n(-c2ccccc2)c(=O)c1C(=O)OC
## Output 10.1

## Input Also O.[Cl][Pt].[NH-]CC[S-] , if possible.
## Output 1.3

## Input Please answer likewise for CCOc1ccc(NC(=O)CC2SC(=Nc3ccc(C)cc3)NC2=O)cc1 (stereo unspecified)
## Output -31.9

---

measurementNotes: NCI Yeast Anticancer Drug Screen. Data for the rad50 strain (AID 155);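 further: 0% = growth of vehicle-only cultures of the same strain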
settings: S. cerevisiae rad50 strain growth inhibition; at 50.0 µM; stronger effect = higher value
This is part of a sample that, as a whole, favours compounds with a hit. Of some 79,000 tested, about 15% had one in any assay.
quantity: growth inhibition (%)
Note: unit % is implicit; provide only the numeric part.

## Input Need growth inhibition, item CC(C)[C@@H](C)[C@@]1(C)C[C@@H]1[C@@H](C)[C@H]1CC[C@@H]([C@@H]2CC=C3C[C@@H](O)CC[C@]3(C)C2=O)[C@]1(C)CCO
## Output 13.9

## Input Try the compound CC(=O)N(/C=C\C1=[N+](C)CCS1)c1ccccc1
## Output 10.2

## Input // next record O=C1C(Nc2ccccc2)=C(c2ccccc2)C(=O)N1c1ccccc1
## Output 1.15

## Input Here is the next compound: CCOc1ccc(/C=C2\N=C(c3cccc(Cl)c3)OC2=O)cc1
## Output 12.2

## Input Moving on to c1ccc(CNc2ncnc3n[nH]nc23)cc1
## Output -14

## Input Next up: COc1cc(C(C)c2cc3c(cc2O)OCO3)cc(OC)c1OC (stereo unspecified)
## Output -31.2

## Input // repeat for CC(=O)Nc1ccc(C=O)cc1[N+](=O)[O-] and report
## Output 14.2

## Input One more compound: CC(C)=Nn1cnc2nccnc2c1=O
## Output 2.55

## Input Ok, now CC(=O)Nc1nc(Cl)c2ncn(C3OC(COC(=O)c4ccccc4)CC3OC(=O)c3ccccc3)c2n1 (stereo unspecified)
## Output 10.2

## Input Same for O=C(Nc1ccccc1)OCC#CCOC(=O)Nc1ccccc1
## Output 27.4

## Input Would you kindly repeat that for O=C1CC2C3CC(Br)C4C3CC2C14 (stereo unspecified) ?
## Output 4.95
